experimentalSystem: T1, recombinant HIS-tagged rat nectin-4 (R&D Systems Cat. No. 9997-N4-050) (rat, UniProt D3ZET1 31-348)
T1 construct: Bought protein; HIS tag not described
T1 sequence: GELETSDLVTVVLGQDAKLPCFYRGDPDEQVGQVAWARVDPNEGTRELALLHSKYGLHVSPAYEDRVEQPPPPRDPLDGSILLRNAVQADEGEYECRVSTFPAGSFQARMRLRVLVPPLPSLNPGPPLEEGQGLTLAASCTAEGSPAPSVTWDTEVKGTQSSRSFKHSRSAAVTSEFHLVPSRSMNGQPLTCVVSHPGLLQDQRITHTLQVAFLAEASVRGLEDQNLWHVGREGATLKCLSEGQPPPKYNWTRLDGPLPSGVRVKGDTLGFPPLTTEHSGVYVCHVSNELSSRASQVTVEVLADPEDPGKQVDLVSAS
assayOverview: SPR Biacore 8K+, ADC captured via anti-human Fc, nectin-4 analyte, 37 C;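 note: Nectin-4 injected over captured ADC at 0 to 600 nM for 2 min association, then 10 min dissociation, with a reference flow cell lacking ADC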
Can you tell me koff for the items I'm about to list?

Ab3 ADC (Ab3 conjugated as in Formula XI, DAR of 8) (antibody, human IgG1, kappa, L234A L235A, V domains shown, camptothecin analog linker-payload of Formula XI on cysteine thiols after full reduction, DAR of 8 per antibody; positions not given, Antibody-drug conjugate of Ab3; also called Ab3 (ADC column)) VH: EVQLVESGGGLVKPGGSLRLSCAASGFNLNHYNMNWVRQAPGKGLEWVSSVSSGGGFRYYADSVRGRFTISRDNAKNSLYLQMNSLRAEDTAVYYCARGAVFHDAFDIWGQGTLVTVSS VL: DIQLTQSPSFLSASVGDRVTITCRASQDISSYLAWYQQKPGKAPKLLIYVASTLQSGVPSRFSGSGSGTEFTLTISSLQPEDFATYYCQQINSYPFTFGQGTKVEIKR	0.000903 s⁻¹
Ab5 ADC (Ab5 conjugated as in Formula XI, DAR of 8) (antibody, human IgG1, kappa, L234A L235A, V domains shown, camptothecin analog linker-payload of Formula XI on cysteine thiols after full reduction, DAR of 8 per antibody; positions not given, Antibody-drug conjugate of Ab5; also called Ab5 (ADC column)) VH: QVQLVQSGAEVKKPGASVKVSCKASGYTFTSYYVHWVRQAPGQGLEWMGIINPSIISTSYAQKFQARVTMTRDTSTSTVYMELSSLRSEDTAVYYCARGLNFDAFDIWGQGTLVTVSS VL: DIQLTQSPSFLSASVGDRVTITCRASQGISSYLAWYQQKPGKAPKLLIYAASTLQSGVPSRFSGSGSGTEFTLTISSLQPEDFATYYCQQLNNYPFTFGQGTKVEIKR	0.0199 s⁻¹

Value of koff reported for the binder Ab7 ADC (Ab7 conjugated as in Formula XI, DAR of 8) (antibody, human IgG1, lambda, L234A L235A, V domains shown, camptothecin analog linker-payload of Formula XI on cysteine thiols after full reduction, DAR of 8 per antibody; positions not given, Antibody-drug conjugate of Ab7; also called Ab7 (ADC column)) VH: QVQLVQSGAEVKKPGASVKVSCKASGYTFTNYYMHWVRQAPGQGLEWMGIINPSSGSASYAQKFQGRVTMTRDTSTSTVYMELSSLRSEDTAVYYCAREGVGRDILQAFDIWGQGTLVTVSS VL: QSVLTQPPSVSEAPRQRVTISCSGSSSNIGNNAVNWYQQLPGKAPKLLIYYDDLLPSGVSDRFSGSKSGTSASLAISGLQSEDEADYYCAAWDDSLNGHVFGGGTKLTVLG is 0.0296 s⁻¹
